Values compiled from ChEMBL document CHEMBL1961873.

Catalogue of inhibition readings, one per entry.
Biological target: Dual specificity tyrosine-phosphorylation-regulated kinase 2 (Homo sapiens) (UniProt Q92630);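 note: reported values are means of DYRK2 inhibition from screening the GSK PKIS collection at 1 µM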
Sequence (whole entry): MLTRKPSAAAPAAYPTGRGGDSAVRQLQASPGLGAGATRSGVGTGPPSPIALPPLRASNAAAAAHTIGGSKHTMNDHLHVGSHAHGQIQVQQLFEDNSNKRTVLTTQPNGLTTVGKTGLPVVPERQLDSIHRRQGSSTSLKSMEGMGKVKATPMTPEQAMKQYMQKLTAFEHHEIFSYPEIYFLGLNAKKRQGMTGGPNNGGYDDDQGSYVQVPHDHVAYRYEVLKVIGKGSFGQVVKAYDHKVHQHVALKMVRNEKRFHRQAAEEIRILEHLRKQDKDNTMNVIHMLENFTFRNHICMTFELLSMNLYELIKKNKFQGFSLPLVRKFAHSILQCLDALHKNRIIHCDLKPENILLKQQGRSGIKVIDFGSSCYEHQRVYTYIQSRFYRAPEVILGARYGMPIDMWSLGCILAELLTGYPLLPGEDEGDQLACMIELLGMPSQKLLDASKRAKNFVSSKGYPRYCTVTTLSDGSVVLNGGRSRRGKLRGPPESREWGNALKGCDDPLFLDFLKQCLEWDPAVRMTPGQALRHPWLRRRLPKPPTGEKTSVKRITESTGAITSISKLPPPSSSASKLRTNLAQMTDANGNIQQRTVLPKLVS
Conditions: at 1 µM
Number only, in %; omit the unit.

Cc1cc(O)cc(C)c1/C=C/c1cncc(C(=O)OC(C)(C)C)c1	3.56
Fc1ccc(Nc2nccc(-c3c(-c4ccc(C(F)(F)F)cc4)nn4ncccc34)n2)cc1F	3.44
COC(=O)Nc1nc2ccc(Oc3ccc(NC(=O)Nc4cc(C(F)(F)F)ccc4F)cc3)cc2s1	0.21

Documented inhibition of c1cnn2ncc(-c3ccnc(NCCCN4CCOCC4)n3)c2c1 : 5.39

Documented inhibition of OCCCNc1nccc(-c2c(-c3ccc(F)cc3)nn3cc(C(F)(F)F)ccc23)n1 : 3.97

----------
Catalogue of inhibition readings, one per entry.
Target: ALK tyrosine kinase receptor (Homo sapiens) (UniProt Q9UM73)
Sequence (Q9UM73 19-1620 limits assumed): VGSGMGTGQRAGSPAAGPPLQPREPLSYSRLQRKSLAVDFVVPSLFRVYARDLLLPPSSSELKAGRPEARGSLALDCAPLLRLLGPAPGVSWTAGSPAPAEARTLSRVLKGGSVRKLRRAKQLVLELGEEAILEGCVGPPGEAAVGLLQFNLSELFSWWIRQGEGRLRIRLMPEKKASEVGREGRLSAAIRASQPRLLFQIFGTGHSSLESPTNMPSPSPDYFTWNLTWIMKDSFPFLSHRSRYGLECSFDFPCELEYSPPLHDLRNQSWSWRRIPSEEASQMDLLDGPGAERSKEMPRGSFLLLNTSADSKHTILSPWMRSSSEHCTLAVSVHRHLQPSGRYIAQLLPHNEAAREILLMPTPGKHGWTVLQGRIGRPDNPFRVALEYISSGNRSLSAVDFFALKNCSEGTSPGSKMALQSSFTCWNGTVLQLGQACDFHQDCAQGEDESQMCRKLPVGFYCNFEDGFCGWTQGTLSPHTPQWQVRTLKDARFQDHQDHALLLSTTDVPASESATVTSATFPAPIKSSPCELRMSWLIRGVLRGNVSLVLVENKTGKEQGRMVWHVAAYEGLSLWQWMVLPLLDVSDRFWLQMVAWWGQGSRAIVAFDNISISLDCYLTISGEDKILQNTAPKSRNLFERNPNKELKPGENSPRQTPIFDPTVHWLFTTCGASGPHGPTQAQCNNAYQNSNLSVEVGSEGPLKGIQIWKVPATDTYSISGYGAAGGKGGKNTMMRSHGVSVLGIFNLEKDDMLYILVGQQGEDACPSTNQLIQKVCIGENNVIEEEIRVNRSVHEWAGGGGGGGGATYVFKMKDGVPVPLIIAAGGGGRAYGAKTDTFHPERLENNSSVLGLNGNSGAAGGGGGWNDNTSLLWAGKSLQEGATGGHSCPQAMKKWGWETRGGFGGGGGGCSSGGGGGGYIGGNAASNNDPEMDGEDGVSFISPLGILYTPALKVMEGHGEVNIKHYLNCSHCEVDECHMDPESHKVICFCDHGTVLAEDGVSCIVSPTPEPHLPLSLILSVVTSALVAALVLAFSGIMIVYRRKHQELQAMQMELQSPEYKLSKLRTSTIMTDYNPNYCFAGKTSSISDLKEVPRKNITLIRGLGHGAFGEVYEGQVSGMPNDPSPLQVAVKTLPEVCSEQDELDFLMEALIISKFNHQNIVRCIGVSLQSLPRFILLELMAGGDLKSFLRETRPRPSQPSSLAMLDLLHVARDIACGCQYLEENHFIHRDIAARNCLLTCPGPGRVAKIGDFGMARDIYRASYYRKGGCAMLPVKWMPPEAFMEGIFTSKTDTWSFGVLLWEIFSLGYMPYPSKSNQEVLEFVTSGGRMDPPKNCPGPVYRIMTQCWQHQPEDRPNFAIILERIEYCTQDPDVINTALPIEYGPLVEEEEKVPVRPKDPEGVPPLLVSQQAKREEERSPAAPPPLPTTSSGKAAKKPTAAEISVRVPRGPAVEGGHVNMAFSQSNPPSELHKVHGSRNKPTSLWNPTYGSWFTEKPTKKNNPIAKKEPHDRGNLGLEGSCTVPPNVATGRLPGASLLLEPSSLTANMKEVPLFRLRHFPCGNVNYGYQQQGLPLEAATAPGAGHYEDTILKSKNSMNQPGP
Conditions: at 0.1 µM
Description: GSK_PKIS: ALK mean inhibition at 0.1 uM [Nanosyn]
Number only, in %; omit the unit.

Sample records with inhibition:
Cc1cc(O)cc(C)c1/C=C/c1cncc(C(=O)OC(C)(C)C)c1	3.06
Fc1cccc(COc2ccc(Nc3ncncc3C#Cc3ccccc3)cc2Cl)c1	2.52
COC(=O)Nc1nc2ccc(Oc3ccc(NC(=O)Nc4cc(C(F)(F)F)ccc4F)cc3)cc2s1	0.95
CCS(=O)(=O)c1ccc(OC)c(Nc2ncc(-c3cccc(C(C)=O)c3)o2)c1	2.32
CCCNc1cccc(-n2ncc3c(N/N=C/c4ccncc4)ncnc32)c1	0.42

Documented inhibition of CS(=O)(=O)Nc1ccc(-c2ccc3c(NC(=O)C4CC4)n[nH]c3c2)cc1 : 3.16

Documented inhibition of CN(C)CCNC(=O)Nc1ccc(N(C)c2ccnc(Nc3ccc(CS(C)(=O)=O)cc3)n2)cc1 : 3.32

Documented inhibition of COc1cc2c(cc1Nc1nc(Nc3cccc(F)c3C(N)=O)c3cc[nH]c3n1)N(C(=O)CN1CCN(C(C)C)CC1)CC2 : 62.8

Documented inhibition of Cc1cc(O)cc(C)c1/C=C/c1cncc(C(N)=O)c1 : 3.62

Documented inhibition of COc1ccccc1-c1cc(/C=C2\C(=O)Nc3ncc(Br)cc32)cc(Br)c1O : 2.62

Documented inhibition of COc1cccc(Nc2nccc(-c3cnn4ncccc34)n2)c1 : 5.36

Documented inhibition of CNC(=O)c1cncc(/C=C/c2ccccc2C)c1 : 4.09

Documented inhibition of COc1ccc(Nc2ncc(-c3ccccc3)o2)cc1OC : 1.69

Documented inhibition of CNC(=O)c1sc(-n2cnc3cc(OC)c(OC)cc32)cc1OCc1ccccc1C(F)(F)F : 3.52

Documented inhibition of O=C1Nc2ccccc2/C1=C1\CCc2cc(O)ccc21 : 5.54

Documented inhibition of NS(=O)(=O)c1cccc(N/C=C2\C(=O)Nc3ccccc32)c1 : 2.94

Documented inhibition of Cc1ccc(-c2cc3c(NC(=O)C4CC4)ncnc3o2)cc1 : 4.09

Documented inhibition of CS(=O)(=O)CCNCc1ccc(-c2ccc3ncnc(Nc4ccc(OCc5ccccc5)cc4)c3c2)o1 : 2.33

Documented inhibition of CC(C)c1ccc(-c2cc(-c3c[nH]nc3-c3ccccn3)ccn2)cc1 : 1.28

Documented inhibition of CNC(=O)c1ncccc1Nc1nc(Nc2cc3c(cc2OC)CCCN3C(=O)CN(C)C)nc2[nH]ccc12 : 94.4

Documented inhibition of CCS(=O)(=O)c1ccc(OC)c(Nc2ncc(-c3cccc(F)c3)o2)c1 : 4.12

Documented inhibition of N#Cc1ccc2c(-c3ccnc(NC4CC4)n3)c(-c3ccc(F)cc3)nn2c1 : 0.92

Documented inhibition of FC(F)(F)CNc1nccc(-c2cnn3ncccc23)n1 : 2.79
